Hey, just so you know, these numbers are from PubChem BioAssay.

experiment: ovarian cancer cell viability with rucaparib, profiling panel, oncology-focused library, rucaparib conditional (AID 1508598); settings: patient-derived ovarian cancer cells, CellTiter-Glo viability, 144 h; at 0.00488 µM; OCI-P5x cells; with rucaparib 20 µM; stronger effect = lower value; 100% = cells with rucaparib alone
OBSERVABLE: viability (%)
The answer is to be given in %; state only the numeric part.

{"COMPOUND": "O=C1CCC(N2C(=O)c3ccccc3C2=O)C(=O)N1 (stereo unspecified)", "MEASUREMENT": 112}

Fill in: viability of `Cc1ccc(-c2cc(C(F)(F)F)nn2-c2ccc(S(N)(=O)=O)cc2)cc1` is ___
93.8

Proceed to `CC(C)C(=O)Nc1ccc([N+](=O)[O-])c(C(F)(F)F)c1`
107

# repeat for `O=c1[nH]cc(F)c(=O)[nH]1`
104

Let us now turn to `CCCCCCNC(=O)n1cc(F)c(=O)[nH]c1=O`
108

// same read-out, input: `NC(=O)c1ccc(-c2nc(-c3ccc4c(c3)OCO4)c(-c3ccccn3)[nH]2)cc1`
108
